experimental-target: endogenous GSTO1 (Homo sapiens, UniProt P78417)
Sequence (P78417 1-241): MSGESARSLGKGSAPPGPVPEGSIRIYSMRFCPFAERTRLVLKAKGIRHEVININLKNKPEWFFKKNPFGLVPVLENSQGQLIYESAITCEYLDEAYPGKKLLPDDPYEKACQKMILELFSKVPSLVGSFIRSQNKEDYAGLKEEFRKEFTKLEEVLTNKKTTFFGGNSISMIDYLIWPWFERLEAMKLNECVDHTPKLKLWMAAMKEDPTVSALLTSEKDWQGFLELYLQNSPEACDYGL
assay: In-gel fluorescence competitive CMFDA binding assay, endogenous GSTO1 in HCT116
measurement-conditions: 10 µM; inhibition of CMFDA binding, HCT116
attribute-measured: GSTO binding assay (% Inhibition at 10 µM) Endogenous (%)

(1) CCC1(c2ccccc2)NC(=O)N(NC(=O)CCl)C1=O (centres unmarked)
(2) Cc1sc2ncn(NC(=O)CCl)c(=O)c2c1C
Q: Looking only at measured GSTO binding assay (% Inhibition at 10 µM) Endogenous, which entry is lower, 1 or 2 ? // respond with label for picked entry
A: 2
(2: 41.1%, 1: 65.0%)

---

experimental-target: GSTO1 (Homo sapiens, UniProt P78417)
Sequence (P78417 1-241): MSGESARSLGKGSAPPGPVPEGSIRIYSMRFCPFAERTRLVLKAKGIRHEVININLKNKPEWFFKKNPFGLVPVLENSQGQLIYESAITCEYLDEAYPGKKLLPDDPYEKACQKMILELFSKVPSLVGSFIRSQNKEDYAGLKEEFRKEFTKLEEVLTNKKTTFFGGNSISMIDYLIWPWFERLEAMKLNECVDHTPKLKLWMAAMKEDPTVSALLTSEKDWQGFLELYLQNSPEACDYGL
assay: In-gel fluorescence competitive CMFDA binding assay, recombinant GSTO1
measurement-conditions: inhibition of CMFDA binding
attribute-measured: GSTO binding assay (% Inhibition at 10 µM) Recombinant (%)

Recorded GSTO binding assay (% Inhibition at 10 µM) Recombinant (molecule `O=C(CCl)N(NC(=O)P(=O)(N1CCOCC1)N1CCOCC1)c1ccc(Br)cc1` ): 9.3

Recorded GSTO binding assay (% Inhibition at 10 µM) Recombinant (molecule `Cc1ccc(C)c(-n2nc(C)cc2NC(=O)CCl)c1` ): 35.8

Recorded GSTO binding assay (% Inhibition at 10 µM) Recombinant (molecule `N#Cc1cnn(-c2ccccc2)c1NC(=O)CCl` ): 36.8

Recorded GSTO binding assay (% Inhibition at 10 µM) Recombinant (molecule CC(NC(=O)CCl)C12CC3CC(CC(C3)C1)C2 (stereo not drawn) ): 16.6

(a) O=C(CCl)Nc1ccc(S(=O)(=O)C(F)F)cc1
(b) O=C(CCl)NCC1COc2ccccc2O1 (stereo not drawn)
(c) Cc1nn(Cc2ccccc2)c(C)c1CNC(=O)CCl
(d) COCCN(C(=O)CCl)c1c(N)n(Cc2ccccc2)c(=O)[nH]c1=O
(e) O=C(CCl)Nc1ccc(OC(F)F)cc1
Q: Arrange these molecules by their GSTO binding assay (% Inhibition at 10 µM) Recombinant, starting with the largest number. Provide the labels, sequenced as the question asks.
A: a, e, b, c, d

(I) COC(=O)c1ccc(C(=O)OC)c(NC(=O)CCl)c1
(II) O=C(CCl)NCCCSc1ccccc1
(III) O=C(CCl)Nc1c(Br)cc([N+](=O)[O-])cc1Br
(IV) CN(CCCNC(=O)CCl)c1ccccc1
(V) CC(NC(=O)CCl)c1ccc2c(c1)OCO2 (stereo not drawn)
Q: Arrange these molecules by their GSTO binding assay (% Inhibition at 10 µM) Recombinant, starting with the largest number. Provide the labels, sequenced as the question asks.
A: I, II, IV, V, III

(A) O=C(CCl)Nc1ccc(Cl)cc1[N+](=O)[O-]
(B) O=C(CCl)N1CCN(S(=O)(=O)C=Cc2ccccc2)CC1
Q: Name the one with the greater GSTO binding assay (% Inhibition at 10 µM) Recombinant value, either A or B as given. // respond with label for picked entry
A: B

(A) Cc1cccc2sc(N(Cc3ccccc3)C(=O)CCl)nc12
(B) O=C(CCl)N(CC(F)(F)F)c1ccc(Cl)cc1
(C) CN(C)c1ccc(Cl)cc1NC(=O)CCl
Q: Arrange the 3 molecules by rising GSTO binding assay (% Inhibition at 10 µM) Recombinant, starting with the smallest. Provide the labels, sequenced as the question asks.
A: C, B, A

(a) C=CCOc1ccccc1CN(C(=O)CCl)c1ccc2c(c1)OCCO2
(b) COc1cc2c(cc1OC)CN(C(=O)CCl)CC2
Q: Name the one with the greater GSTO binding assay (% Inhibition at 10 µM) Recombinant value, either a or b as given. // respond with label for picked entry
A: a
(a: 69.3%, b: 9.4%)

(A) C=CCSc1ccccc1NC(=O)CCl
(B) O=C(CCl)NC1CCN(Cc2ccccc2)CC1
Q: Name the one with the greater GSTO binding assay (% Inhibition at 10 µM) Recombinant value, either A or B as given. // respond with label for picked entry
A: A
(A: 52.9%, B: 6.5%)
